System: CD138+ cells from MM patients
Assay: cells
Details: read-out: IC50 (MM; PCs (n = 8)); at 48 hr; mean ± SEM
VALUE TYPE: IC50
Quote the value and follow it with the unit of measurement.

(Q) Please look up its IC50: CC(=O)N[C@H](Cc1ccc(O)cc1)C(=O)N[C@H](CCCNC(=N)N)C(=O)N[C@H](Cc1ccccc1)C(N)=O [DTP3, Ac-YRF-NH2]
(A) 0.0282 µM

====

Molecular target: GADD45β/MKK7 complex (Homo sapiens, UniProt O14733)
Construct: Full-length human (h)MKK7 was expressed as a protein fused to an N-terminal GST tag (GST-MKK7); made in house
Sequence (O14733 1-419): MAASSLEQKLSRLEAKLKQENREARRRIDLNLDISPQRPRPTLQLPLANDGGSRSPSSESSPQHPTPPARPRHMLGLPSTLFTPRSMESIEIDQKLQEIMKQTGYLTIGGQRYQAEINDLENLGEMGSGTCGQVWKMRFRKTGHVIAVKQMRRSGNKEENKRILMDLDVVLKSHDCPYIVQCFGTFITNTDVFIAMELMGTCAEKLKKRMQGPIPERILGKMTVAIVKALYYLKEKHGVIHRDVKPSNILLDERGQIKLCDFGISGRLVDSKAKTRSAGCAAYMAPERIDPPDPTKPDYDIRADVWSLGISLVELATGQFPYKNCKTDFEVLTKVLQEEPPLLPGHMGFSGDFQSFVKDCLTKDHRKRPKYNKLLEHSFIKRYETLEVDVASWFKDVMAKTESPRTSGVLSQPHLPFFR
Experiment: ELISA GADD45β/MKK7 competition assay
Format: binding
Conditions: Table S4; read-out: IC50s (ELISA)
Where a SMILES comes first, the peptide text is derived from it.
Entries annotated with measured IC50

// solved cases for IC50 follow
• CC(=O)N[C@@H](Cc1c[nH]c2ccccc12)C(=O)N[C@@H](CC(=O)O)C(=O)N[C@@H](CCCCN)C(=O)N[C@@H](Cc1c[nH]c2ccccc12)C(N)=O [Ac-WDKW-NH2] (Ac-WDKW-NH2) = < 42 nM
• CC(=O)N[C@@H](Cc1c[nH]c2ccccc12)C(=O)N[C@@H](CCC(=O)O)C(=O)N[C@@H](CCCCN)C(=O)N[C@@H](Cc1ccccc1)C(N)=O [Ac-WEKF-NH2] (Ac-WEKF-NH2) = < 42 nM
• CC(=O)N[C@@H](Cc1c[nH]c2ccccc12)C(=O)N[C@@H](CCC(=O)O)C(=O)N[C@@H](CCCCN)C(=O)N[C@@H](Cc1c[nH]c2ccccc12)C(N)=O [Ac-WEKW-NH2] (Ac-WEKW-NH2) = < 42 nM
• CC(=O)N[C@@H](Cc1c[nH]c2ccccc12)C(=O)N[C@@H](CCC(=O)O)C(=O)N[C@@H](CCCNC(=N)N)C(=O)N[C@@H](Cc1c[nH]c2ccccc12)C(N)=O [Ac-WERW-NH2] (Ac-WERW-NH2) = < 42 nM
• CC(=O)N[C@@H](Cc1ccc(O)cc1)C(=O)N[C@@H](CCC(=O)O)C(=O)N[C@@H](CCCCN)C(=O)N[C@@H](Cc1c[nH]c2ccccc12)C(N)=O [Ac-YEKW-NH2] (Ac-YEKW-NH2) = > 42 nM

Could you now look at the following compound, please?
(Q) Please look up its IC50: NC(=O)[C@@H](Cc1ccccc1)NC(=O)[C@@H](Cc1c[nH]cn1)NC(=O)[C@H](N)Cc1ccc(O)cc1 [H-YHF-NH2]
(A) 0.65 nM
